# PROCEDURE_DETAILS: Hydrolysis of Pertuzumab conjugated samples obtained using different small molecule compounds, hydrolysis percentage by Native MS
# Assay type: physicochemical
# PROTOCOL_CONDITIONS: hydrolysis system A: 50 mM sodium dihydrogen phosphate-disodium hydrogen phosphate buffer, pH 7.8; 3 h
Listed here are molecules together with their documented 3 h hydrolysis percentage.
All answers are understood in %, so give the number only.

MOLECULE	UNIT_ANNOTATION	3 h hydrolysis percentage
CCC(C)[C@@H]([C@@H](CC(=O)N1CCC[C@H]1[C@H](OC)[C@@H](C)C(=O)N[C@H](C)[C@@H](O)c1ccccc1)OC)N(C)C(=O)[C@@H](NC(=O)[C@H](C(C)C)N(C)C(=O)OCc1ccc(NC(=O)[C@H](CCCNC(N)=O)NC(=O)[C@@H](NC(=O)COCCOCCOCCOc2ccc(N3C(=O)C(Sc4ccc(C(=O)NC)cc4)=C(Sc4ccc(C(=O)NC)cc4)C3=O)cc2OC)C(C)C)cc1)C(C)C (some centres unmarked) [B-7]	%	34.10

## Input Using the record for CCC(C)[C@@H]([C@@H](CC(=O)N1CCC[C@H]1[C@H](OC)[C@@H](C)C(=O)N[C@H](C)[C@@H](O)c1ccccc1)OC)N(C)C(=O)[C@@H](NC(=O)[C@H](C(C)C)N(C)C(=O)OCc1ccc(NC(=O)[C@H](CCCNC(N)=O)NC(=O)[C@@H](NC(=O)COCCOCCOCCOc2ccc(N3C(=O)C(Sc4ccccc4)=C(Sc4ccccc4)C3=O)c(C(F)(F)F)c2)C(C)C)cc1)C(C)C (some centres unmarked) [A-4] , report its 3 h hydrolysis percentage.
## Output 25.99

* * *

# PROCEDURE_DETAILS: Hydrolysis of Pertuzumab conjugated samples obtained using different small molecule compounds, hydrolysis percentage by Native MS
# Type: physicochemical
# PROTOCOL_CONDITIONS: hydrolysis system C: 50 mM potassium dihydrogen phosphate-dipotassium hydrogen phosphate buffer, pH 7.8; 1 h
MEASUREMENT_KIND: 1 h hydrolysis percentage (%)
All answers are understood in %, so give the number only.

COMPOUND	MEASUREMENT_KIND	DATA_VALUE
CCC(C)[C@@H]([C@@H](CC(=O)N1CCC[C@H]1[C@H](OC)[C@@H](C)C(=O)N[C@H](C)[C@@H](O)c1ccccc1)OC)N(C)C(=O)[C@@H](NC(=O)[C@H](C(C)C)N(C)C(=O)OCc1ccc(NC(=O)[C@H](CCCNC(N)=O)NC(=O)[C@@H](NC(=O)COCCOCCOCCOc2ccc(N3C(=O)C(Sc4ccc(C(=O)N5CCOCC5)cc4)=C(Sc4ccc(C(=O)N5CCOCC5)cc4)C3=O)cc2)C(C)C)cc1)C(C)C (stereo partly shown)	1 h hydrolysis percentage	87.52
CCC(C)[C@@H]([C@@H](CC(=O)N1CCC[C@H]1[C@H](OC)[C@@H](C)C(=O)N[C@H](C)[C@@H](O)c1ccccc1)OC)N(C)C(=O)[C@@H](NC(=O)[C@H](C(C)C)N(C)C(=O)OCc1ccc(NC(=O)[C@H](CCCNC(N)=O)NC(=O)[C@@H](NC(=O)COCCOCCOCCOc2ccc(N3C(=O)C(Sc4ccccc4)=C(Sc4ccccc4)C3=O)c(C(F)(F)F)c2)C(C)C)cc1)C(C)C (stereo partly shown)	1 h hydrolysis percentage	14.98
CCC(C)[C@@H]([C@@H](CC(=O)N1CCC[C@H]1[C@H](OC)[C@@H](C)C(=O)N[C@H](C)[C@@H](O)c1ccccc1)OC)N(C)C(=O)[C@@H](NC(=O)[C@H](C(C)C)N(C)C(=O)OCc1ccc(NC(=O)[C@H](CCCNC(N)=O)NC(=O)[C@@H](NC(=O)COCCOCCOCCOc2ccc(N3C(=O)C(Sc4ccc(C(=O)NC)cc4)=C(Sc4ccc(C(=O)NC)cc4)C3=O)cc2OC)C(C)C)cc1)C(C)C (stereo partly shown)	1 h hydrolysis percentage	15.12

Now for the compound whose 1 h hydrolysis percentage we want.
## Input Returns the measured 1 h hydrolysis percentage for the input compound. Input: CCC(C)[C@@H]([C@@H](CC(=O)N1CCC[C@H]1[C@H](OC)[C@@H](C)C(=O)N[C@H](C)[C@@H](O)c1ccccc1)OC)N(C)C(=O)[C@@H](NC(=O)[C@H](C(C)C)N(C)C(=O)OCc1ccc(NC(=O)[C@H](CCCNC(N)=O)NC(=O)[C@@H](NC(=O)COCCOCCOCCOc2c(F)cc(N3C(=O)C(Sc4ccc(C(=O)N5CCOCC5)cc4)=C(Sc4ccc(C(=O)N5CCOCC5)cc4)C3=O)cc2F)C(C)C)cc1)C(C)C (stereo partly shown)
## Output 90.55
